B1: CPEB3 Ribozyme (parent)
chain: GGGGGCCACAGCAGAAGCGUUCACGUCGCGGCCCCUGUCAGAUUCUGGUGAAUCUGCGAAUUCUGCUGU

Variants of: B1
assay: self-cleavage, relative activity (ratio to wild type); higher = more cleavage; co-transcriptional
Label Criterion met when self-cleavage >= 0.3; otherwise Criterion not met.

Below are worked cases with known answers.
Task: Given G14A U49A , state whether its self-cleavage is at least 0.3.
Output: Criterion met

Task: Given U26C C66U , state whether its self-cleavage is at least 0.3.
Output: Criterion met

Task: Given U26A U43A , state whether its self-cleavage is at least 0.3.
Output: Criterion met

Task: Given C39U U64A , state whether its self-cleavage is at least 0.3.
Output: Criterion met

Task: Given C6G C22A , state whether its self-cleavage is at least 0.3.
Output: Criterion not met

More entries:
Task: Given C12A G19U , state whether its self-cleavage is at least 0.3.
Output: Criterion not met

Task: Given G28A G31A , state whether its self-cleavage is at least 0.3.
Output: Criterion not met

Task: Given G17A A52C , state whether its self-cleavage is at least 0.3.
Output: Criterion met

Task: Given C24A U55A , state whether its self-cleavage is at least 0.3.
Output: Criterion met

Task: Given C9G A15G , state whether its self-cleavage is at least 0.3.
Output: Criterion met

Task: Given C7A G41A , state whether its self-cleavage is at least 0.3.
Output: Criterion not met

Task: Given U36A C39G , state whether its self-cleavage is at least 0.3.
Output: Criterion not met

Task: Given A16G G28U , state whether its self-cleavage is at least 0.3.
Output: Criterion not met

Task: Given A13G G41C , state whether its self-cleavage is at least 0.3.
Output: Criterion met
